Provenance of the data: ChEMBL document CHEMBL3988442

Biological target: Arginase-2, mitochondrial (Homo sapiens)
Sequence (whole entry): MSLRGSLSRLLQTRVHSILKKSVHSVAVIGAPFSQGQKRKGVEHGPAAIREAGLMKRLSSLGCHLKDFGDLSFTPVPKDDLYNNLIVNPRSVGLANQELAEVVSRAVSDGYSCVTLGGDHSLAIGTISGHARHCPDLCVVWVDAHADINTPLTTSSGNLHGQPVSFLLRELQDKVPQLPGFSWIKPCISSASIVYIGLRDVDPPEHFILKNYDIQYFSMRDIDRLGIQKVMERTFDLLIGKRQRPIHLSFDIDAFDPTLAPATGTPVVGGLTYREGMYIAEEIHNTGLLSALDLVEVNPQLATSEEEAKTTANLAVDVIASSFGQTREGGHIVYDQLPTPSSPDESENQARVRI
Assay: in vitro enzyme assay to detect the production of urea directly proportional to the activity of Arginase II; further: in the data most compounds retested in dose-response had high values
Format: functional
Set-up: scale not given: direction of the effect not stated beside the values
Conditions: 33.3 µM
reported metric: Percent Effect (%)
Give bare numbers, in %.

Use these answered entries as a reference point.
Cc1ccc2c(ccn2CCC(=O)NC[C@@H]2CCCN3CCCC[C@H]23)c1; -6.87
Cc1ccccc1S(=O)(=O)NC(=O)CSc1ccc2c(c1)OCCO2; 0
Cc1ccccc1C(=O)CN1C(=O)c2ccccc2CS1(=O)=O; -2.86

Prompt: Which Percent Effect value belongs to CN(C)Cc1ccnc(C2CCCN2Cc2cc[nH]n2)n1 (centres undefined) ?
Completion: -1.16

* * *

Would you kindly list Percent Effect for each of these molecules?
target: Proteasome subunit beta (Trypanosoma cruzi) (UniProt O96673); assay: Trypanosoma cruzi proteasome chymotrypsin-like activity (TcProtChymo) assay.; assay type: functional; parameters: scale not given: in the data most compounds retested in dose-response had high values; details: 9.37 µM
Sequence (O96673 as listed by the source): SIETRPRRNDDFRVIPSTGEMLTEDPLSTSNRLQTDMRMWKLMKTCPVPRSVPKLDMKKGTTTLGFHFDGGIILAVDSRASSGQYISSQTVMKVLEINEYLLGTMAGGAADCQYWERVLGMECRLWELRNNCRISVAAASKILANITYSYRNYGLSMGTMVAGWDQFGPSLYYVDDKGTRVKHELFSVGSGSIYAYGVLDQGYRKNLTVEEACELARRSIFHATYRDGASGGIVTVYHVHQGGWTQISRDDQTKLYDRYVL
Give bare numbers, in %.

Check out these entries, answers already filled in.
CC1CCCN(CC(=O)N2CCC(c3ncc4c(n3)CCNC4)CC2)C1 (stereo not given); 5.02
O=C(NCCCN1CCCC1)c1n[nH]c(=O)c2ccccc12; 5.74
Cn1cc(C(=O)CC2CCCN2C(=O)c2n[nH]c3ccccc23)cn1 (stereo not given); 7.03

Lab note: each molecule below needs its Percent Effect filled in.
1. COc1ccc(NCc2nc(=O)n(CCC(C)C)[nH]2)cc1
2. O=C(c1ccncc1F)N1CCc2ncnc(-c3ccncc3)c2CC1
3. CCN1CCN(C(=O)c2cc(C(=O)OC)nn2-c2ccccc2)CC1
4. CO[C@H]1CO[C@@]2(CCCN(C(=O)C3=CCCCC3)C2)C1
5. O=C(NCc1cccnc1)C1=NN(c2ccccc2)C(=O)CN1
6. O=C(NCc1ccccc1CN1CCC(O)CC1)Nc1ccncc1
7. Cc1noc(C)c1-c1cccc(CC2CCN(C(=O)CCC(=O)O)C2)n1 (stereo not given)

Completion:
8.92
10.7
15.2
8.03
15
16.2
3.28

// input: 5 molecules below; output: Percent Effect for each
1. Cc1noc(C)c1-c1cccc(CC2CCN(C(=O)c3cc[nH]n3)C2)n1 (stereo not given)
2. O=C(NCCc1nnc2n1CCC2)NC1(c2cccc(F)c2)CC1
3. O=c1n(CCSCc2ccccc2F)nc2ccccn12
4. CN(CC(=O)N1CCCC1c1cnn(C)c1)c1ccc(Cl)cn1 (stereo not given)
5. Cc1ccccc1CN1CCC(NCC2CNc3ccnn3C2)CC1 (stereo not given)

Completion:
1: 8.72; 2: 14.1; 3: 1.7; 4: 7.19; 5: 11.4

* * *

Molecular target: Arginase-2, mitochondrial (Homo sapiens)
Sequence (whole entry): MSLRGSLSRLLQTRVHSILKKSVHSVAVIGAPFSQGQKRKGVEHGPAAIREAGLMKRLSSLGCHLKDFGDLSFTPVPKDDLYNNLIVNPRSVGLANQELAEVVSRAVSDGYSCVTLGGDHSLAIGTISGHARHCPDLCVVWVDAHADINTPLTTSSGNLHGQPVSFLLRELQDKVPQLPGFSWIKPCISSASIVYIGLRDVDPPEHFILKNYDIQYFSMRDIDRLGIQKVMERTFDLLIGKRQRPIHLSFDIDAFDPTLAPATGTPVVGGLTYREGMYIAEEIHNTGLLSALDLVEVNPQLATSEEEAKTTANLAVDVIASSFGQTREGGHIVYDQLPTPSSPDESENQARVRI
Test: in vitro enzyme assay to detect the production of urea directly proportional to the activity of Arginase II; further: in the data most compounds retested in dose-response had high values
Format: functional
Set-up: scale not given: direction of the effect not stated beside the values
Details: 33.3 µM
So I've got a bunch of compounds here, and I need their Percent Effect values.
One number for each entry, in %.

Sample answers from the record:
Cn1nnc2c1C(COCC1CC1)CN(C(=O)Cc1ccsc1)C2 (centres undefined); -3.23
O=C(CCc1ccccc1)C1CCCN(C(=O)c2ncc(F)cc2F)C1 (centres undefined); 2.73

Please report Percent Effect for every entry that follows.
1. O=C([C@H]1CCCO1)N1CCCC2(CCN(Cc3ccncc3)C2=O)C1 (some centres undefined)
2. COc1c(CNCc2ccc(C(=O)NC3CC3)cc2)c(C)nn1C
3. Cc1noc([C@@H]2C[C@H]3OCC[C@H]3N(S(=O)(=O)c3cccnc3)C2)n1
4. CCOCC1CN(S(C)(=O)=O)Cc2cnn(C)c21 (centres undefined)

Completion:
[7.1, 2.8, -5.19, -43.9]

Each compound below has a reported value. Please supply its Percent Effect.
1. CN(C)C(=O)[C@@H]1CCO[C@@H]2CCN(CCc3ccccc3)C[C@@H]21
2. Cn1cc(-c2ncnc3c2CCN(C(=O)N2CCOCC2)CC3)cn1
3. COCc1nc(CN2CCC3(CCCO3)CCC2=O)no1 (centres undefined)

Completion:
1. 38.8
2. 1.24
3. -2.6

* * *

target: Protein translocase subunit SecA (Escherichia coli (strain K12)) (UniProt P10408); test: Assay to Identify E. coli SecA ATPase Inhibitors; assay type: functional; set-up: scale not given: direction of the effect not stated beside the values; details: 30 µM
Sequence (P10408 whole entry): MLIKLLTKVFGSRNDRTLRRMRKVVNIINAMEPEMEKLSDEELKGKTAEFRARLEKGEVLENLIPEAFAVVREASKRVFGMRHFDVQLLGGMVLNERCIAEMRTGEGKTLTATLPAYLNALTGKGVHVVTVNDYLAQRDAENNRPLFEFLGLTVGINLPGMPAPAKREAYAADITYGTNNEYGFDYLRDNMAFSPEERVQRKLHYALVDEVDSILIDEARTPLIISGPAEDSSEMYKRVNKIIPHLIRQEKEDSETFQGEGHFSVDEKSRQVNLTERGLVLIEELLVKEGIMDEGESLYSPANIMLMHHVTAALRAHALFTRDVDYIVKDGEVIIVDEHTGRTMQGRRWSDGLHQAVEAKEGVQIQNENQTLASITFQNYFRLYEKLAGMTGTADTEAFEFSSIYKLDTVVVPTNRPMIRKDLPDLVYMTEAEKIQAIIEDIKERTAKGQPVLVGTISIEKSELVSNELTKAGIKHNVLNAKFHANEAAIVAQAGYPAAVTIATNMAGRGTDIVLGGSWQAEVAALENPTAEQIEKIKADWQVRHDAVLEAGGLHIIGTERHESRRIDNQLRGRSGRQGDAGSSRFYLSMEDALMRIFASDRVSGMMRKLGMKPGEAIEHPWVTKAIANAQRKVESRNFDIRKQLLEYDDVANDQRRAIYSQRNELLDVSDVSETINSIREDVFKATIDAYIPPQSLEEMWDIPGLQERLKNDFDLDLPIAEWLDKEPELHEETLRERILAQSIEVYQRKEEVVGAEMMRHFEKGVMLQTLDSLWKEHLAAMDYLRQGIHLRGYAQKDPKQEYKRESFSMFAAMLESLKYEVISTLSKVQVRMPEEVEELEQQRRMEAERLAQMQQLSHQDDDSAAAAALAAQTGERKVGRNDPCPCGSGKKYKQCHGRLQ
Results with a measured potency or affinity are listed apart.
Consider the following molecules; for each one, report its Percent Effect.
Answers are plain numbers, in %.

Below, each entry is followed by its recorded Percent Effect result.
CC(=O)c1cc(CC(=O)NCc2ccc(F)cc2)cs1; -2.72
Oc1nc(N2CCOCC2)nc2c1CCN(Cc1cccnc1)CC2; -4.93
O=c1ccc2c(n1CCN1CCCC1)CCN(Cc1ccoc1)CC2; -1.68
OC(COCc1cccs1)CN1CCC(c2ccn[nH]2)CC1 (centres undefined); 0.446
Cn1cc(-c2ncnc3c2CCN(C(=O)N2CCOCC2)CC3)cn1; -2.9

// for each molecule in input: emit Percent Effect
1. O=C(COc1coc(CN2CCOCC2)cc1=O)c1ccc(Cl)cc1
2. O=C(c1ccno1)N1CC[C@@H]2O[C@@H](COCCN3CCCC3)CC[C@@H]21
3. Cc1nc(C)n(CC2CN(c3ncccn3)Cc3nccn3C2)n1 (centres undefined)
4. CNC(=O)c1ccc(C(=O)N2CCCC(n3cc(C)cn3)C2)cn1 (centres undefined)
5. O=C1CC(NCc2ccncc2)CN1Cc1cccc(F)c1 (centres undefined)
6. O=C(NCc1ccccc1)c1nnc2ccc(N3CCOCC3)cc2n1

Completion:
[-3.55, -3.63, -6.81, -7.4, -3.06, -4.99]

* * *

species: Homo sapiens; test: To identify inhibition of the IFN signalling (Jak-Stat) pathway via expression of an eGFP reporter gene under the control of an IFN-stimulated response element (ISRE) containing MxA promoter.; type: functional; set-up: scale not given: direction of the effect not stated beside the values; conditions: 30 µM
I'd be grateful if you could share measured Percent Effect for these entries.
Answers are plain numbers, in %.

CC(C)(C)c1ccn(C2(C(=O)O)CCN(c3nccc(N)n3)CC2)n1; 0.112

Give me Percent Effect for each of these molecules, listed below.
1. O=C(c1cccn1Cc1cccs1)N1CCCC1Cn1cccn1 (stereo not given)
2. COCCn1ccc(NC(=O)Nc2cccnc2)n1

Completion:
1: -4.07; 2: 21.2

* * *

Record form. Attribute: Percent Effect. Fill in for each entry.
Target: Arginase-2, mitochondrial (Homo sapiens) (UniProt P78540)
Sequence (whole entry): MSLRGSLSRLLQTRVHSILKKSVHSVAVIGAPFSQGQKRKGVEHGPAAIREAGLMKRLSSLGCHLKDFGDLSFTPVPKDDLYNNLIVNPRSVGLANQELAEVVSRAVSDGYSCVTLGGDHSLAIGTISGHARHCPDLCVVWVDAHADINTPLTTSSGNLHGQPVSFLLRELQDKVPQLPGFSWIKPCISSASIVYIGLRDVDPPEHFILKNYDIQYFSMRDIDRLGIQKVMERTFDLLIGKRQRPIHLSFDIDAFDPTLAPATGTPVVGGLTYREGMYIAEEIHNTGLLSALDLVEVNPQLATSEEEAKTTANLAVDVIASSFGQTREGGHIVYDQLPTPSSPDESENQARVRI
Test: in vitro enzyme assay to detect the production of urea directly proportional to the activity of Arginase II; further: in the data most compounds retested in dose-response had high values
Format: functional
Parameters: scale not given: direction of the effect not stated beside the values
Details: 33.3 µM
Give bare numbers, in %.

Cc1nn2c(N3CCC(O)CC3)cc(-c3ccccc3)nc2c1C; -3.99
COc1ccccc1CN1CCC2(CC1)CC(Oc1ccccn1)CO2 (stereo unspecified); 132

I have 7 compounds here; please give me Percent Effect for each one.
1. Cc1ccc(-c2cc(C(=O)NC(C)C(=O)N3CCCCC3)on2)cc1 (stereo unspecified)
2. O=C(C1CCS(=O)(=O)C1)N1CCN(c2cnccn2)CC1 (stereo unspecified)
3. CCC1c2cccn2CCN1C(=O)c1ccc2nonc2c1 (stereo unspecified)
4. CC(Cc1ccco1)NC(=O)Nc1ccc(N2CCOCC2)nc1 (stereo unspecified)
5. Cc1nnc(NCC2(c3ccccc3)CC2)c(C#N)c1C
6. COCC1CCN(C(=O)c2cccc(S(=O)(=O)NCC3(C)COC3)c2)C1 (stereo unspecified)
7. CC(NC(=O)NCC1(N2CCCCC2)CCCCC1)c1nncn1C (stereo unspecified)

Completion:
[5.92, 0.185, 0, 0.383, 1.43, 3.23, 0]

Need Percent Effect for each of these compounds.
1. CCc1nc(CN2CCCN(C(=O)C(C)n3ccnc3)CC2)cs1 (stereo unspecified)
2. CC(C)N(C)Cc1nnc2n1CCCN(C(=O)c1ccco1)C2

Completion:
[-5.69, 13.6]
